Where these numbers come from: ChEMBL document CHEMBL2218924

target: Ribosomal protein S6 kinase alpha-4 (Homo sapiens) (UniProt O75676); settings: at 10 µM
Sequence (O75676 whole entry, looked up): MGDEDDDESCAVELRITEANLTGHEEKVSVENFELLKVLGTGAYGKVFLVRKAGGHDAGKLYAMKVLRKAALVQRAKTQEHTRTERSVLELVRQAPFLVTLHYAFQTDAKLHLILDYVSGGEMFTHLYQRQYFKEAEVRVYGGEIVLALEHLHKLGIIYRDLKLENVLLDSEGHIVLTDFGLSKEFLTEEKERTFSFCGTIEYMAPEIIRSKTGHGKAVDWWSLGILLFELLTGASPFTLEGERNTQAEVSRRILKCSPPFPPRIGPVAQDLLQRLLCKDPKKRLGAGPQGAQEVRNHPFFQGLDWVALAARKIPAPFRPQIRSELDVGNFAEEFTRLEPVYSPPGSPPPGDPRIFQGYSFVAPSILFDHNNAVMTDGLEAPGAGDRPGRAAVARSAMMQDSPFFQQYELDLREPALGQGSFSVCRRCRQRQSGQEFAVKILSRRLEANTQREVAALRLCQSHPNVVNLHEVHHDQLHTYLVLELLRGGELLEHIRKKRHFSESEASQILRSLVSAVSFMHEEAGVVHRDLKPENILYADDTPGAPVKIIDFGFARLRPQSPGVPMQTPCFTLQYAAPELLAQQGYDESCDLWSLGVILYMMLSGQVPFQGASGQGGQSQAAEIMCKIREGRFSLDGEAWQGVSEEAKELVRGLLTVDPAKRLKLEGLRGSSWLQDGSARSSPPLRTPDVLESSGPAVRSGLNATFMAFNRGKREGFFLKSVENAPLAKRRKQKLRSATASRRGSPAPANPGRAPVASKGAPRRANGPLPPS
Lab note: anything with residual activity below 80% is marked yes (1); values at 80% or higher are marked no (0).

// known answers, use as guide
[[record]]
molecular_string = "Cn1cnc2cc3c(Nc4cccc(Br)c4)ncnc3cc21"
category_label = "no (0)"

[[record]]
molecular_string = "COc1cc2ncnc(Nc3ccc(NC(=O)c4ccccc4)cc3)c2cc1OC"
category_label = "no (0)"

[[record]]
molecular_string = "Ic1cccc(CSc2nnc(-c3ccncc3)o2)c1"
category_label = "yes (1)"


stdin: Lab note: residual activity threshold 80%. Does this compound come in strictly under it? CCN(CC)C(=O)c1ccc(Nc2nc(OCC3CCCCC3)c3nc[nH]c3n2)cc1
stdout: yes (1)

stdin: Answer whether the compound COc1cc2ncnc(Nc3ccc(Oc4ccccc4)cc3)c2cc1OC has residual activity strictly less than 80%
stdout: no (0)
